Reported values of pIC50 for individual entries
System name: full-length human PHD3 (Homo sapiens, UniProt Q9H6Z9)
Sequence (Q9H6Z9 whole entry): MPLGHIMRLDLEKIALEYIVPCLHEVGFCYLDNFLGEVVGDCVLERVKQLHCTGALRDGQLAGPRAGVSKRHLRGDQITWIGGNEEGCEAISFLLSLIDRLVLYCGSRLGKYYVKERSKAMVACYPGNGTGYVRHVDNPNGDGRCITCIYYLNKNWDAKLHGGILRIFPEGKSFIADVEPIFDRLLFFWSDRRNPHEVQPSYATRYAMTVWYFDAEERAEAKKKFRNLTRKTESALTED
pIC50: −log10 of the molar value.

INSERT INTO results (compound, recorded_result) VALUES
  ('Cc1cc(C#N)ccc1-c1cnn(-c2ccc(C(=O)OC(C)(C)C)cn2)c1O [Compound 8]', '> 7.00'),
  ('CC(C)(C)OC(=O)c1ccc(-n2ncc(-c3ccc(C#N)cc3)c2O)nc1 [Compound 38]', '5.00 to 6.00');

Value (pIC50, full-length human PHD3 (Homo sapiens, UniProt Q9H6Z9)) for record COC(=O)c1ccc(-n2nc(C)c(-c3ccc(C#N)cc3)c2O)nc1 [Compound 11] = 6.00 to 7.00

Value (pIC50, full-length human PHD3 (Homo sapiens, UniProt Q9H6Z9)) for record Cc1cc(-n2nc(C)c(-c3ccc(C#N)cc3)c2O)ncc1C(=O)O [Compound 18] = > 7.00

Value (pIC50, full-length human PHD3 (Homo sapiens, UniProt Q9H6Z9)) for record Cc1cc(-c2cnn(-c3ccc(C(=O)O)cn3)c2O)ccc1O [Compound 16] = 5.00 to 6.00

Value (pIC50, full-length human PHD3 (Homo sapiens, UniProt Q9H6Z9)) for record N#Cc1ccc(-c2cnn(-c3ccc(C(=O)O)cn3)c2O)c(O)c1 [Compound 21] = 6.00 to 7.00

Value (pIC50, full-length human PHD3 (Homo sapiens, UniProt Q9H6Z9)) for record Cc1nn(-c2ccc(C(=O)O)cn2)c(O)c1-c1ccc(Cl)c(F)c1 [Compound 26] = 6.00 to 7.00

Value (pIC50, full-length human PHD3 (Homo sapiens, UniProt Q9H6Z9)) for record CC(C)OC(=O)c1ccc(-n2ncc(-c3ccc(C#N)cc3)c2O)nc1 [Compound 37] = > 7.00

Value (pIC50, full-length human PHD3 (Homo sapiens, UniProt Q9H6Z9)) for record O=C(O)c1ccc(-n2ncc(-c3ccc(Cl)nc3)c2O)nc1 [Compound 17] = > 7.00

---

System name: full-length human PHD3 (Homo sapiens, UniProt Q9H6Z9)
Measured metric: IC50

Example cases with answers are listed next.
INSERT INTO measurements (smiles_str, recorded_result) VALUES
  ('N#Cc1cc(F)c(-c2cnn(-c3ccc(C(=O)O)cn3)c2O)cc1F', '100 to 1000 nM'),
  ('Cc1nn(-c2ccc(C(=O)OC(C)(C)C)cn2)c(O)c1-c1ccc(C#N)cc1', '≥ 10000 nM'),
  ('Cc1cc(C#N)ccc1-c1c(C)nn(-c2ccc(C(=O)O)cn2)c1O', '< 100 nM'),
  ('O=C(O)c1ccc(-n2ncc(-c3ccc(Cl)cc3)c2O)nc1', '100 to 1000 nM'),
  ('Cc1nn(-c2ccc(C(=O)O)cn2)c(O)c1-c1ccc(Cl)cc1F', '100 to 1000 nM'),
  ('O=C(O)c1ccc(-n2ncc(-c3ccc(Cl)cc3O)c2O)nc1', '1000 to 10000 nM');

Now for another entry.
Measured IC50 of `O=C(O)c1ccc(-n2ncc(-c3ccc(F)cc3)c2O)nc1` : 1000 to 10000 nM

---

Target or system full-length human PHD1 (Homo sapiens): recorded pIC50 listed per item.
pIC50: −log10 of the molar value.

INSERT INTO results (smiles_str, recorded_result) VALUES
  ('COc1ccc(-c2c(C)nn(-c3ccc(C(=O)O)cn3)c2O)cc1C', '6.00 to 7.00');

Now for another entry.
Value (pIC50, full-length human PHD1 (Homo sapiens)) for record `CC(C)(C)OC(=O)c1ccc(-n2ncc(-c3ccc(Cl)cc3)c2O)nc1` = 6.00 to 7.00
